log10 of EC50 listing for selected molecules.
assayed target: human mAChR M4 (Homo sapiens, UniProt P08173)
Construct: expressed in transfected cells; host or cells: CHO-K1 (ATCC), stably expressing hM4 and Gqi5
protocol: mAChR M4 cell-based functional assay: calcium flux (Fluo-4, FDSS), positive allosteric modulator activity on the EC20 acetylcholine response, hM4-Gqi5 CHO-K1 cells
assay setup: human M4; PAM activity on EC20 acetylcholine response, calcium flux; read-out: Human M4 EC50
property name: log10 of EC50 (log10 of the value in nM)

Cc1nc(N2CCc3ncc(-c4cn(C)nc4C)cc3C2)c2cc(F)ccc2n1 : 2.08
Cc1nc(N2CCc3ncc(-c4cnc(F)cc4C)cc3C2)c2cc(F)ccc2n1 : 2.11
Cc1ccc(F)c(Oc2cnc3c(c2)CN(c2nc(C)nc4ccc(Cl)cc24)CC3)c1 : 3.89
Cc1ccc2ncnc(N3CCc4ncc(C(F)(F)F)cc4C3)c2c1 : 1.48
Cc1nc(N2CCc3ncc(Oc4ccccc4F)cc3C2)c2cc(F)ccc2n1 : 2.36
Cc1ccc2nc(Cl)nc(N3CCc4ncc(-c5cnn(C6CC6)c5)cc4C3)c2c1 : 2.71
Cc1nn(C)cc1-c1cnc2c(c1)CN(c1nc(Cl)nc3ncccc13)CC2 : 3.40
Fc1ccc2nc(N3CCOc4ncccc43)nc(N3CCc4ncc(C(F)(F)F)cc4C3)c2c1 : 2.83

* * *

assayed target: human mAChR M4 (Homo sapiens)
Construct: expressed in transfected cells; host or cells: CHO-K1 (ATCC), stably expressing hM4 and Gqi5
protocol: mAChR M4 cell-based functional assay: calcium flux (Fluo-4, FDSS), positive allosteric modulator activity on the EC20 acetylcholine response, hM4-Gqi5 CHO-K1 cells
assay setup: human M4; PAM activity on EC20 acetylcholine response, calcium flux; read-out: Human M4 EC50
EC50 listing for selected compounds.
property name: EC50

Fc1cc2ncnc(N3CCc4ncc(N5CCCn6nccc65)cc4C3)c2cc1F : 50 nM
Cc1ccc2ncnc(N3CCc4ncc(N5CCC(C(F)(F)F)n6nccc65)cc4C3)c2c1 (stereo not shown) : 130 nM
CC1CN(c2ncnc3ccc(F)cc23)Cc2cc(N(c3cccnc3)c3cccnc3)cnc21 (stereo not shown) : 630 nM
CC1CN(c2ncnc3ccc(F)cc23)Cc2cc(C(F)(F)F)cnc21 (single isomer, unassigned) [Compound 117] : 400 nM

* * *

assayed target: human mAChR M4 (Homo sapiens, UniProt P08173)
Construct: expressed in transfected cells; host or cells: CHO-K1 (ATCC), stably expressing hM4 and Gqi5
protocol: mAChR M4 cell-based functional assay: calcium flux (Fluo-4, FDSS), positive allosteric modulator activity on the EC20 acetylcholine response, hM4-Gqi5 CHO-K1 cells
assay setup: CHO-K1, human M4; % ACh maximum at 30 μM
Experimental: […] Calcium flux was measured using the Functional Drug Screening System (FDSS) 6000 or 7000 (Hamamatsu Corporation, Tokyo, Japan) as an increase in the fluorescent static ratio. […] Agonist activity was analyzed as a concentration-dependent increase in calcium mobilization upon compound addition. Positive allosteric modulator activity was analyzed as a concentration-dependent increase in the EC20 acetylcholine response. […]
Emax at 30 µM listing for selected molecules.
property name: Emax at 30 µM (%)

Cc1nc(N2CCc3ncc(-c4cnc(F)cc4C)cc3C2)c2cc(F)ccc2n1 [Compound 305] : 92
Fc1ccc2nc(NC3CC(F)(F)C3)nc(N3CCc4ncc(C(F)(F)F)cc4C3)c2c1 [Compound 184] : 93
Fc1ccc2ncnc(N3CCc4ncc(-c5ccnn5C5COC5)cc4C3)c2c1 [Compound 265] : 76
Cc1nc(N2CCc3ncc(Nc4cccnc4F)cc3C2)c2cc(Cl)ccc2n1 [Compound 72] : 84
Cc1nc(N2CCc3ncc(C(F)(F)F)cc3C2)c2cccc(F)c2n1 [Compound 126] : 66
Cc1nc(N2CCc3ncc(-c4cnn(C5CC5)c4)cc3C2)c2cc(F)ccc2n1 [Compound 5] : 80
Cc1ccc2ncnc(N3CCc4ncc(C5CC5)cc4C3)c2c1 [Compound 160] : 90
COc1ccc2ncnc(N3CCc4ncc(C5CC5)cc4C3)c2c1 [Compound 161] : 83
Cc1ccc2c(N3CCc4ncc(C(F)(F)F)cc4C3)nc(C)nc2c1 [Compound 124] : 43

* * *

assayed target: human mAChR M4 (Homo sapiens, UniProt P08173)
Construct: expressed in transfected cells; host or cells: CHO-K1 (ATCC), stably expressing hM4 and Gqi5
Sequence (P08173 1-479): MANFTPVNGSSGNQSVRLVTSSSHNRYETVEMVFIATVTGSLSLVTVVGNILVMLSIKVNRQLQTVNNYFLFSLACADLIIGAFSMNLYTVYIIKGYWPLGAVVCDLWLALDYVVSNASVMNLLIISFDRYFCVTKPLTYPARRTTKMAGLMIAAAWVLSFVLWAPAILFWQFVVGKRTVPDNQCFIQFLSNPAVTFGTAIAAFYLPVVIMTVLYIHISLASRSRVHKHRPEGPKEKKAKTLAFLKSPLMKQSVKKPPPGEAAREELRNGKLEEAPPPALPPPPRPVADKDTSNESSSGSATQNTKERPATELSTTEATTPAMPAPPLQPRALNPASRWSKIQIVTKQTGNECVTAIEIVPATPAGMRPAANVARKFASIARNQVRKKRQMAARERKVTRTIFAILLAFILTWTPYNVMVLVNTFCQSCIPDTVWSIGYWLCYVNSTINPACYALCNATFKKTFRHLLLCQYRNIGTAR
protocol: mAChR M4 cell-based functional assay: calcium flux (Fluo-4, FDSS), positive allosteric modulator activity on the EC20 acetylcholine response, hM4-Gqi5 CHO-K1 cells
assay setup: human M4; PAM activity on EC20 acetylcholine response, calcium flux; read-out: Human M4 EC50
EC50 listing for selected compounds.
property name: EC50 (nM)

Cc1nc(N2CCc3ncc(-c4ccc(C(F)(F)F)nc4)cc3C2)c2cc(Cl)ccc2n1 [Compound 4] : 860
Cc1ccc2nc(C)nc(N3CCc4ncc(N5CCCn6nccc65)cc4C3)c2c1 [Compound 100] : 60
CC(C)(C)c1cc2n(n1)CCCN2c1cnc2c(c1)CN(c1ncnc3ccc(F)cc13)CC2 [Compound 279] : 810
[2H]c1nc(N2CCc3ncc(-c4cnc(C)s4)cc3C2)c2cc(C)ccc2n1 [Compound 174] : 140
COc1ccc2ncnc(N3CCc4ncc(C5CC5)cc4C3)c2c1 [Compound 161] : 110
CC1CN(c2ncnc3ccc(F)cc23)Cc2cc(Nc3ncnc4ccc(F)cc34)cnc21 (centres unmarked) [Compound 237] : 1400

* * *

assayed target: human mAChR M4 (Homo sapiens)
Construct: expressed in transfected cells; host or cells: CHO-K1 (ATCC), stably expressing hM4 and Gqi5
Sequence (P08173 1-479): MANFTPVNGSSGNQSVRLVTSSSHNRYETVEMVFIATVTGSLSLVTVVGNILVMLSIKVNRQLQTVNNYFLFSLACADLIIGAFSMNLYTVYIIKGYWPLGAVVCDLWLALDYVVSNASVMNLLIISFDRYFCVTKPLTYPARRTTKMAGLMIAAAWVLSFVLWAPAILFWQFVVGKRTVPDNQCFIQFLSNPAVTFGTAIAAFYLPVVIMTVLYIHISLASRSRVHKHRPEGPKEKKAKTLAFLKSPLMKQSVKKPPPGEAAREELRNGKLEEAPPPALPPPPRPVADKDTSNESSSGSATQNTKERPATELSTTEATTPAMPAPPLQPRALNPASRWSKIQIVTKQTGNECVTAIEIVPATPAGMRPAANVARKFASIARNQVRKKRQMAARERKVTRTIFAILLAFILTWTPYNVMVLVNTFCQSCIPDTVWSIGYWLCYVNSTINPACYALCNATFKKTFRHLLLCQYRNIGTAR
protocol: mAChR M4 cell-based functional assay: calcium flux (Fluo-4, FDSS), positive allosteric modulator activity on the EC20 acetylcholine response, hM4-Gqi5 CHO-K1 cells
assay setup: CHO-K1, human M4; % ACh maximum at 30 μM
Emax at 30 µM listing for selected compounds.
property name: Emax at 30 µM (%)

Fc1ccccc1Oc1cnc2c(c1)CN(c1ncnc3ccc(Cl)cc13)CC2 : 77
Cc1ccc(-c2cnc3c(c2)CN(c2nc(Cl)nc4ncccc24)CC3)cn1 : 69
CN1CCN(c2nc(N3CCc4ncc(Nc5ccnn5C)cc4C3)c3cc(F)ccc3n2)CC1 : 80
Clc1nc(N2CCc3ncc(N4CCCn5nccc54)cc3C2)c2cccnc2n1 : 88
Fc1cc2ncnc(N3CCc4ncc(-c5ccnn5C5COC5)cc4C3)c2cc1F : 79

* * *

assayed target: human mAChR M4 (Homo sapiens)
Construct: expressed in transfected cells; host or cells: CHO-K1 (ATCC), stably expressing hM4 and Gqi5
protocol: mAChR M4 cell-based functional assay: calcium flux (Fluo-4, FDSS), positive allosteric modulator activity on the EC20 acetylcholine response, hM4-Gqi5 CHO-K1 cells
assay setup: human M4; PAM activity on EC20 acetylcholine response, calcium flux; read-out: Human M4 EC50
pEC50: −log10 of the molar value.
Lab note: anything with pEC50 at or over 6 counts as Criterion met; the rest go in Criterion not met.

Fc1cc2ncnc(N3CCc4ncc(CC(F)(F)F)cc4C3)c2cc1F : Criterion met
Cc1ccc(Oc2cnc3c(c2)CN(c2nc(C)nc4ccc(Cl)cc24)CC3)c(F)c1 : Criterion not met
Cc1ccc2ncnc(N3CCc4ncc(Nc5cccnc5F)cc4C3)c2c1 : Criterion met

Data provenance is patent US20250026752A1.
